system: HCT-116 colon; test: NCI tumour cell line growth inhibition, 48 h
parameter: TGI (µM)
Give bare numbers, in µM.

Specify measured TGI for CC(=O)N=C1C=C(NC(C)=O)C(=O)c2ccccc21 . 3.62

Turning now to a further record.
Provide one value: measured TGI of NC(=O)c1cccc(N2Cc3ccccc3OC3=C2C(=O)c2c(O)ccc(O)c2C3=O)c1 0.963

###

Answer each item with its documented TGI.
tested on: A549 NSCLC; assay: NCI tumour cell line growth inhibition, 48 h

These recorded examples may help you get a feel for the data.
Determine from records and report TGI for CCCCC#COS(=O)(=O)c1ccc(C)cc1 > 100 µM

Given the molecule CN1CCc2c(sc3ncn(N)c(=N)c23)C1 , write its reported TGI. > 100 µM

Read off the recorded TGI for COC1CC(C)(N)C(O)C(C)O1 (configuration not stated) > 100 µM

Identify measured TGI associated with CN(C)c1ccc(/C=C2\Oc3ccccc3C2=O)cc1 > 100 µM

Annotate the molecule COc1ccc(/C=C2/N=C(N/N=C\C(O)C(O)C(O)C(O)CO)NC2=O)cc1 (configuration not stated) with its measured TGI. > 100 µM

Hey, can you go through the list below and give me TGI for every item?
1. CC(C)(C)OC(=O)N1CCCC1=O
2. CCOC(=O)/C=C/C1=C(c2csc3ccccc23)c2ccccc2CC1
3. COc1ccc(NC(=O)C2C(=O)N(c3ccc(OC)cc3)C(=O)/C2=N\N)cc1 (configuration not stated)
4. O=c1[nH]nc(Cc2ccccc2)n1/N=C\CC/C=N\n1c(Cc2ccccc2)n[nH]c1=O
5. O=C(O)c1cc(-c2ccc3c(O)ccc(O)c3c2)ccc1O

1: > 10 µM; 2: > 100 µM; 3: > 100 µM; 4: > 100 µM; 5: > 100 µM

Please give TGI, item by item, for the list that follows.
1. CCOC(=O)C(NC(=O)CC(C)C)(NC(C)C)C(F)(F)F (configuration not stated)
2. Cn1c(=O)cc(NNc2ccccc2)[nH]c1=O
3. CN1CCN(c2ccc3nc(-c4c5cccccc-5[nH]c4=O)[nH]c3c2)CC1
4. Cc1cc(C)c(C#N)c(SC(=S)NC(=O)c2ccc(Cl)cc2)n1
5. CC(C)C(Br)CC/C(CBr)=C(\Cl)CCl (configuration not stated)

> 100 µM
> 100 µM
> 59.3 µM
> 100 µM
33.3 µM

Report TGI for each item below.
1. CC1(C)C(=O)/C(=C\c2ccccn2)C[C@]2(C)[C@H]3CC[C@@H]4[C@@H](C(=O)/C=C/c5ccccn5)CC[C@@]4(C)[C@]3(C)CC[C@@H]12
2. CC(=O)NC1C(OCc2ccccc2)OC(CO)C(O)C1OCC(=O)N1CCCC1C(=O)N[C@@H](CCC(=O)NCCNCCNc1c2ccccc2nc2cccc([N+](=O)[O-])c12)C(N)=O (some centres not stated)

1: > 28.2 µM; 2: 9.83 µM

Quick request: TGI for each listed item, please.
1. NC(=O)c1cccc(N2Cc3ccccc3OC3=C2C(=O)c2c(O)ccc(O)c2C3=O)c1
2. CC(C)c1cc(C(F)(F)F)nc(NNc2nc(C(C)C)cc(C(F)(F)F)n2)n1
3. c1cc(-c2ccsc2-c2ccsc2)cs1
4. COc1cc(O)c2c(=O)c(OC)c(-c3ccc(OC)c(OC)c3)oc2c1.[Co]
5. COc1ccc(-c2cc(-c3ccc(Nc4ccnc5cc(C(F)(F)F)ccc45)cc3)nc(N)c2C#N)cc1

1: 10.1 µM; 2: > 100 µM; 3: > 100 µM; 4: > 100 µM; 5: > 100 µM
